assay_summary: growth suppression of yeast trafficking mutant, preliminary HTS, modulators of trafficking downstream of Golgi apparatus project, 1536-format plate, OD 615 nm (AID 637)
test_settings: yeast transport mutant growth, absorbance 615 nm, 18 h; hits give high values
Entries and their inhibition values follow.
Dear colleague, please return just the value in %, with no unit written.

Record excerpt, results attached:
{"columns": ["compound", "parameter", "numeric_result"],
 "data": [
  ["O=C(CCSc1nnc(-c2ccncc2)o1)Nc1ccccc1", "inhibition", 5.27],
  ["CC(C)[C@H](NC(=O)[C@@H]1CSCN1C(=O)OC(C)(C)C)C(=O)NCC1CCC(C(=O)O)CC1 (stereo not given in full)", "inhibition", -3.23],
  ["COc1ccc(N2CC(C(=O)Nc3ccc(F)cc3F)CC2=O)cc1 (stereo not given)", "inhibition", 1.13],
  ["CCOC(=O)c1[nH]c2ccccc2c1NC(=O)C(CC)CC", "inhibition", 5.5],
  ["CC1CCCCC1NC(=O)c1nn(C)c(=O)c2ccccc12 (stereo not given)", "inhibition", -10],
  ["CCOC(=O)C1CCN(c2c(N3CCCCCC3)c(=O)c2=O)CC1", "inhibition", -0.33]
]}

Entry `Cc1csc2nc(CSc3ccc(Cl)cc3)cn12` ; inhibition = 3.77

* * *

assay_summary: OD615 S. cerevisiae growth inhibition, permissive medium, pilot counter-assay, permissive growth control for S. cerevisiae lifespan shortening project (AID 705)
test_settings: OD615, 24 h, at 10 µM, hits give high values
parameter: growth inhibition (%)
Quick reminder: number only, in %, skip the unit.

{"columns": ["molecule", "numeric_result"],
 "data": [
  ["CC(=O)c1c(Nc2ccc3c(c2)OCCO3)oc(C)cc1=O", -21.9],
  ["Cc1ccc2oc3c(c(=O)c2c1)C(c1cccs1)N(CCCN(C)C)C3=O (stereo not drawn)", 2.01],
  ["CC1(C)CC(=O)C(C=NC2CCCCC2)=C(O)C1", 0.43],
  ["COc1ccc(Cn2c(=O)n(Cc3ccco3)c(=N)c3c4c(sc32)COC(C)(C)C4)cc1", -17.7],
  ["Cc1ccc(-n2ncc3c(=O)[nH]c(SCC(=O)N4CCCCC4)nc32)cc1", -4.04]
]}

The recorded growth inhibition for `CCOCCCNC(=O)c1cccs1` is -5.41

* * *

assay_summary: Restrictive medium S. cerevisiae growth inhibition, OD615, pilot screen of yeast lifespan reduction project, restrictive growth control (AID 706);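 also: modified DeaD lifespan yeast strain shifted to restrictive glucose medium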
test_settings: OD615, 48 h, at 10 µM, hits give high values
Listing: growth inhibition of selected compounds
Numbers only here, please. The scale is %.

{"columns": ["compound", "numeric_result"],
 "data": [
  ["Cc1c(-c2ccco2)[n+](=O)c2c(n1[O-])CCCCC2", -4.29],
  ["COC(=O)c1cn(NC(=O)c2ccncc2)c(=O)c2ccccc12", -19.7]
]}

The reported growth inhibition of the compound `O=C(Oc1ccc(Cl)cc1)N1CCCCC1` was 3.42

Looking up O=C(CCCOc1ccccc1)Nc1nnc(C2CCCO2)s1 (stereo unspecified) , I see its growth inhibition listed as -3.93

// recorded growth inhibition for CC(=O)c1ccc(NC(=O)C2CCCN2S(=O)(=O)c2ccc(F)cc2)cc1 (stereo unspecified) : 0.06

For this compound ( COc1ccc(C2C=C(c3ccc(C)c(C)c3)Nc3ncnn32)c(OC)c1OC (stereo unspecified) ), measured growth inhibition is 11.7

Lab book: growth inhibition of `c1coc(Cn2c(SCc3nc4ccccc4[nH]3)nnc2-c2cccs2)c1` noted as 21.3

For `Cc1nn(CC(=O)Nc2cccnc2N2CCOCC2)c(=O)c2ccccc12` the compound record lists growth inhibition as 1.05
